- measurement.notes: qHTS Assay for Lipid Storage Modulators in Drosophila S3 Cells
- measurement.context: BODIPY lipid droplet fluorescence, 18-24 h, cells fed with added oleic acid; series mostly up to 46.1 µM
Screen size: about 320,000 compounds; about 2,100 (0.66%) were called active. Roughly 53% stayed inconclusive and do not appear here. Calls come from the whole dose curve; as a rule, active = well fitted inhibition curve with a large enough effect in the signal ratio, with a control signal flat (not every such curve was filed as active); inconclusive = small, poorly fitted or top-dose-only effect, or effect the other way, or a change in a side signal; inactive = flat fitted curve, though single readings scatter; the % refers to the signal ratio. For the sample, actives were picked, then their nearest neighbours and some compounds at random.
Outcome field: choose from t for active, f for inactive

compound	group
COc1ccc2[nH]cc(CCNC(=O)C3CCCCC3)c2c1	f

Any idea what this test logged for Cc1cc(C)cc(NC(=O)N2CCCC2C(=O)NCc2ccco2)c1 (configuration not stated) ?
f

What would you report for `CCOC(=O)C(=CNc1ccc(S(N)(=O)=O)cc1)C(=O)OCC` ?
f

What would you report for `O=C(COC(=O)c1ccc(OC(F)F)cc1)NCCNC(=O)COC(=O)c1ccc(OC(F)F)cc1` ?
f

What would you report for O=C(NCc1ccco1)C1CCCN1C(=O)Nc1cccc(Cl)c1 (configuration not stated) ?
f

What would you report for `O=S(=O)(NCc1ccccc1)c1ccc(Cl)cc1` ?
f

What would you report for `O=C(Oc1ccccc1/C=C\C(=O)c1cc2ccccc2o1)c1ccccc1` ?
t

What would you report for `N#Cc1ccc(C[C@@H](NS(=O)(=O)c2ccc(C(=O)O)cc2)C(=O)O)cc1` ?
f

What would you report for `Cc1ccc(OCc2nnc(NC(=O)OCC(C)C)s2)c(C)c1` ?
f

What would you report for `Cc1ccc(OCc2nnc(NC(=O)OCC(C)C)s2)cc1` ?
t

What would you report for `COc1ccc2[nH]cc(CCNC(=O)Cc3ccc(F)cc3)c2c1` ?
f

What would you report for CC(NC(=O)CN1c2cccc3cccc(c23)S1(=O)=O)c1ccc(S(N)(=O)=O)cc1 (configuration not stated) ?
f

What would you report for `COc1cccc(-c2noc(CCCC(=O)N3CCOCC3)n2)c1` ?
f

What would you report for `CCC1(CC)Cc2ccccc2C(C2=C(O)CC(C)(C)CC2=O)=N1` ?
f

What would you report for `Cc1ccc(NC(=S)N2CCC(C(N)=O)(N3CCCCC3)CC2)c(C)c1` ?
f

What would you report for O=C(NCc1ccco1)C1CCCN1C(=O)Nc1ccc(Br)cc1 (configuration not stated) ?
t

What would you report for `CCCc1cc(=O)oc2cc(OCC(=O)NCCc3ccc(S(N)(=O)=O)cc3)ccc12` ?
f

What would you report for `Cc1ccccc1C(=O)Nc1ccnn1C1CCN(Cc2c(C)n(C)c3ccccc23)CC1` ?
f

###

- measurement.notes: qHTS Assay for Lipid Storage Modulators in Drosophila S3 Cells;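 for cell number change: cells counted by Cell Tracker Red CMTPX staining in the red channel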
- measurement.context: BODIPY lipid droplet fluorescence, 18-24 h, cells fed with added oleic acid; measured here: cell count max response
Hit rate of the full screen: of about 320,000 compounds, about 2,100 (0.66%) were called active. Not shown: some 53% with an inconclusive outcome. The list comes from a sample in which actives are over-represented; it also holds close analogues and randomly drawn compounds.
reported.metric: cell number change (%)
Note: unit % is implicit; provide only the numeric part.

The examples below pair each entry with its known result.
compound	cell number change, %
O=C(CSc1nnc(-c2ccncc2)n1-c1ccccc1)Nc1ccc(C(=O)O)cc1	4.34
Cc1cc(C)n(CC(O)CN2C(=O)NC(C)(C)C2=O)n1 (stereo not drawn)	7.08
CC(=C\C(=O)O)/C(=C/c1ccc(C)o1)C(=O)O	-12.8
Cc1ccc(NC(=O)COC(=O)C2CCC(=O)N2)c(S(=O)(=O)N2CCOCC2)c1 (stereo not drawn)	2.3
CCOC(=O)Nc1ccc2c(CN3CCN(S(=O)(=O)c4ccccc4)CC3)cc(=O)oc2c1	3.64

I'd like to know its cell number change. The compound in question is `CNC(=O)NNC(=O)c1onc(-c2c(Cl)cccc2Cl)c1C(=O)OC`
19.9

What would you report for `CCOc1ccc(C(=O)NCC(=O)OCc2ccc(F)cc2Cl)cc1` ?
13.4

What would you report for `Cc1ccc(N(Cc2ccccc2)C(=O)c2cccc(S(=O)(=O)N3CCN(C)CC3)c2)cc1` ?
-1.81

What would you report for `Cc1ccccc1C(=O)NC1CCN(CC(=O)Nc2ccccc2)CC1` ?
-25.1

What would you report for `O=C(NCc1csc2ccc(Cl)cc12)Nc1ccccc1` ?
-21.1

What would you report for `Cc1ccc(NC(=O)CSc2ccccc2NC(=O)c2ccccc2)cc1Cl` ?
-20

What would you report for `CCN(CC)c1ccc(/C=N/NC(=S)NC)c(O)c1` ?
2.22

What would you report for Cc1cc(C(=O)N2CCCC(C(=O)c3ccc4ccccc4c3)C2)nn1C (stereo not drawn) ?
11.4

What would you report for O=C(COC(=O)C1CCC(=O)N1)Nc1ccc(Cl)cc1Cl (stereo not drawn) ?
-17

What would you report for `O=C(NC1=NCCS1)c1ccccc1Cl` ?
-14.3

What would you report for Cc1cc(C(=O)N2CCCC(C(=O)c3ccc4ccccc4c3)C2)n(C)n1 (stereo not drawn) ?
-14.9

###

- measurement.notes: qHTS Assay for Lipid Storage Modulators in Drosophila S3 Cells
- measurement.context: BODIPY lipid droplet fluorescence, 18-24 h, cells fed with added oleic acid; series mostly up to 46.1 µM
About 2,100 (0.66%) of roughly 320,000 compounds were called active. Roughly 53% stayed inconclusive and do not appear here. The call rests on the fitted dose curve; in most records, active means well fitted inhibition curve with a large enough effect in the signal ratio, with a control signal flat (not every such curve was filed as active); inconclusive means small, poorly fitted or top-dose-only effect, or effect the other way, or a change in a side signal; inactive means flat fitted curve, though single readings scatter; the % refers to the signal ratio. This is one part of a sample in which actives are shown more often than they occur.
Outcome field: choose from 1 = active, 0 = inactive

Sample answers from the record:
COc1ccccc1NC(=O)c1ccc(-c2ccccc2[N+](=O)[O-])o1 0
COc1ccc(C(=O)Nc2ccccc2N2CCN(C(=O)c3ccccc3)CC2)cc1Br 1
COc1ccc(-c2cc(=O)c(C(=O)c3ccc(C)cc3)n[nH]2)cc1 0

Any idea what this test logged for `COc1ccc(N2CCCC2)c(NC(=O)c2ccc(Br)o2)c1` ?
0

What would you report for `CCN(CC)S(=O)(=O)c1cc(C(=O)n2cccn2)c(Cl)cc1Cl` ?
1

What would you report for `CCC(=O)N1CCN(c2ccccc2NC(=O)c2ccc(-c3cccc([N+](=O)[O-])c3)o2)CC1` ?
0

What would you report for `CN1CCN(c2ccccc2NC(=O)c2ccc(-c3ccccc3[N+](=O)[O-])o2)CC1` ?
1

What would you report for `Nc1ccccc1C(=O)NNc1c2ccccc2nc2ccccc12` ?
0

What would you report for `O=C(CN1C(=O)COc2ccccc21)N1CCCc2ccccc21` ?
0

What would you report for `COc1ccc(N2CCCC2)c(NC(=O)c2ccc([N+](=O)[O-])o2)c1` ?
1

###

- measurement.notes: qHTS Assay for Lipid Storage Modulators in Drosophila S3 Cells
- measurement.context: BODIPY lipid droplet fluorescence, 18-24 h, cells fed with added oleic acid; series mostly up to 46.1 µM
Screen size: about 320,000 compounds; about 2,100 (0.66%) were called active. Inconclusive results (about 53%) are left out. Calls follow the shape of the dose curve; as a rule, active = well fitted inhibition curve with a large enough effect in the signal ratio, with a control signal flat (not every such curve was filed as active); inconclusive = small, poorly fitted or top-dose-only effect, or effect the other way, or a change in a side signal; inactive = flat fitted curve, though single readings scatter; the % refers to the signal ratio. The entries come from a sample that favours actives as a whole.
Outcome field: choose from YES = active, NO = inactive

Sample answers from the record:
compound	group
COc1ccc(CN2CCOCCOCCN(Cc3ccc(OC)cc3)CCOCCOCC2)cc1	NO
COc1ccc(CCN(C)C(=O)c2cc(=O)c3ccccc3o2)cc1OC	YES

Any idea what this test logged for CCOC(=O)C1=C(C)NC(=O)NC1c1ccc(OC(C)C(=O)O)c(OC)c1 (configuration not stated) ?
NO

What would you report for O=C(NC(Cc1ccccc1)C(=O)O)C1CCCCC1 (configuration not stated) ?
NO

What would you report for `CC1CCN(CCCNC(=O)C2CCN(S(=O)(=O)N3CCC4(CC3)OCCO4)CC2)CC1` ?
NO

###

- measurement.notes: qHTS Assay for Lipid Storage Modulators in Drosophila S3 Cells; note: potency is the fitted concentration of half-maximal effect
- measurement.context: BODIPY lipid droplet fluorescence, 18-24 h, cells fed with added oleic acid; series mostly up to 46.1 µM
Among all 320,000 compounds or so, about 2,100 (0.66%) were called active. Another 53% or so got no clear call; they are omitted. This excerpt belongs to a sample that is enriched for actives.
reported.metric: Potency

molecule	Potency
Cc1cc(C)n2nc(C(=O)Nc3cccc(S(=O)(=O)N(C)c4ccccc4)c3)nc2n1	11.6 µM (active)
C=C1CCC[C@]2(C)C[C@H]3OC(=O)C(CN4CC(C)OC(C)C4)[C@H]3C[C@@H]12 (stereo partly drawn)	inactive
NC(=S)N/N=C\c1ccccc1OCc1ccccc1	inactive
Nc1nonc1-n1nnc(C(=O)N/N=C/c2cccc(Cl)c2Cl)c1CN1CCCC1	inactive

I'd like to know its Potency. The molecule in question is CC1CN(C(=O)c2cccc(S(=O)(=O)N3CCN(c4ccccc4)CC3)c2)CC(C)O1 (stereo not drawn)
inactive

What would you report for `O=C(NCCc1nc2ccccc2[nH]1)/C(=C/c1ccco1)NC(=O)c1ccc(Br)o1` ?
inactive

###

- measurement.notes: qHTS Assay for Lipid Storage Modulators in Drosophila S3 Cells
- measurement.context: BODIPY lipid droplet fluorescence, 18-24 h, cells fed with added oleic acid; series mostly up to 46.1 µM
Among all 320,000 compounds or so, about 2,100 (0.66%) were called active. About 53% were inconclusive and are not listed. The call rests on the fitted dose curve; in most records, active means well fitted inhibition curve with a large enough effect in the signal ratio, with a control signal flat (not every such curve was filed as active); inconclusive means small, poorly fitted or top-dose-only effect, or effect the other way, or a change in a side signal; inactive means flat fitted curve, though single readings scatter; the % refers to the signal ratio. The entries come from a sample that favours actives as a whole.
Outcome field: choose from y = active, n = inactive

Sample answers from the record:
compound	group
COc1ccc(C2CC(c3cccs3)=NN2C(=O)CCC(=O)O)cc1 (stereo not given)	n
O=C(N/N=C\c1cccnc1)C1c2ccccc2Oc2ccccc21	n
CCCn1nc(C(=O)N2CCc3ccccc3C2)c2ccccc2c1=O	n
CCC1(C(=O)OC)NC(c2ccco2)C2C(=O)N(c3ccc(C)cc3)C(=O)C21 (stereo not given)	y
Cc1ccc(S(=O)(=O)N2CCN(C(=O)c3nn(C(C)C)c(=O)c4ccccc34)CC2)cc1C	n

Any idea what this test logged for `Cc1cc(C(=O)N/N=C/c2ccc(-c3cccc(Cl)c3Cl)o2)n[nH]1` ?
n

What would you report for CCC1(C(=O)OC)NC(c2ccco2)C2C(=O)N(c3ccccc3)C(=O)C21 (stereo not given) ?
n

What would you report for `COc1ccc(CNc2oc(-c3cccc4ccccc34)nc2C#N)cc1` ?
n

What would you report for `N#Cc1nc(-c2cccc3ccccc23)oc1NCC#CCOC(=O)c1cccs1` ?
y

What would you report for `CCN(CC)CCNC(=O)c1cn(CC)c2cc(N3CCN(C(=O)c4ccco4)CC3)c(F)cc2c1=O` ?
n

Data origin: PubChem BioAssay AID2685
